biological target: Kallikrein-5 (Homo sapiens); experiment: inhibition of kallikrein 5 (hK5) activity – biochemical, 1536-well, primary screen (AID 873); conditions: recombinant hK5, fluorogenic AMC substrate cleavage; at 5 µM; active compounds read high;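 note: 0% = enzyme controls without compound and 100% = no-enzyme blanks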
The whole screen tested about 210,000 compounds, of which about 1,300 (0.62%) were called active. The entries come from a sample that favours actives as a whole.
# inhibition per record follows
Number in %, nothing else.

| smi | quantity_name | result_unit | endpoint_value |
| --- | --- | --- | --- |
| O=C(O)/C=C/c1cn(Cc2ccccc2)nc1-c1cccs1 | inhibition | % | -5.27 |
| COc1ccccc1C1CCN(c2ccc([N+](=O)[O-])cn2)CC1 | inhibition | % | 0.29 |
| O=C(O)CCn1cc(/C=C/C(=O)c2ccc(Cl)cc2)c(-c2cccc(Br)c2)n1 | inhibition | % | 121 |
| CSc1nc(-c2ccco2)nn1C(=O)c1ccccc1Cl | inhibition | % | 52.2 |
| O=C(CSc1ccccc1)Nc1ccc(NC(=O)c2ccco2)cc1 | inhibition | % | -26.9 |
| COC(=O)c1nc(NC(=O)c2ccc(Cl)cc2)n[nH]1 | inhibition | % | -14.4 |
| O=C(CS(=O)(=O)c1cn(Cc2cccc(F)c2)c2ccccc12)N1CCCCC1 | inhibition | % | -11.7 |
| COCCNC(=S)N1CCN(C)CC1 | inhibition | % | 0.97 |

Fill in inhibition for record `COC(=O)c1nc(NC(=O)c2ccccc2)n[nH]1` 45

Indicate the recorded inhibition value for this molecule: `O=C(CS(=O)(=O)c1cn(Cc2ccc(Cl)cc2)c2ccccc12)N1CCOCC1` 47

Respond only with inhibition recorded for `COc1cccc(NC(=O)CS(=O)(=O)c2cn(CC(=O)N3CCOCC3)c3ccccc23)c1` -2.04

###

molecular target: Kallikrein-5 (Homo sapiens) (UniProt Q9Y337); experiment: inhibition of kallikrein 5 (hK5) activity – biochemical, 1536-well, primary screen (AID 873); conditions: recombinant hK5, fluorogenic AMC substrate cleavage; at 5 µM;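 note: 0% = enzyme controls without compound and 100% = no-enzyme blanks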
Sequence (Q9Y337 67-293 limits assumed): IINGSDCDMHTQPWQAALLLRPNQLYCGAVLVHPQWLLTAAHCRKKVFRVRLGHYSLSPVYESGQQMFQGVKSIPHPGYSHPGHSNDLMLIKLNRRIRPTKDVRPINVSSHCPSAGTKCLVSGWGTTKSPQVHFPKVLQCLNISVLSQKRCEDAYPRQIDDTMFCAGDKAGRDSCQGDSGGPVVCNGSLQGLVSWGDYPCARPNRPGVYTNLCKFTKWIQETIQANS
The whole screen tested about 210,000 compounds, of which about 1,300 (0.62%) were called active.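 The calls were made as follows: active = inhibition of 40% or more; inactive = the rest.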 This excerpt belongs to a sample that is enriched for actives.
Result category, one only: yes (1) (active), no (0) (inactive)

Observe how each entry below is paired with its result.
| compound | study_target | assigned_category |
| --- | --- | --- |
| O=C(O)Cc1ccc(-c2ccccc2)cc1 | Kallikrein-5 (Homo sapiens) (UniProt Q9Y337) | no (0) |
| COCc1cc(=O)[nH]c(-c2ccc(C(F)(F)F)cc2)n1 | Kallikrein-5 (Homo sapiens) (UniProt Q9Y337) | no (0) |
| CCOC(=O)c1ccc(NC(=O)Cn2cnc3cc(C)c(C)cc32)cc1 | Kallikrein-5 (Homo sapiens) (UniProt Q9Y337) | no (0) |
| CC1CC(C)CN(S(=O)(=O)c2cccc(C(=O)N3C(=O)c4cccc(N)c4C3=O)c2)C1 (configuration not stated) | Kallikrein-5 (Homo sapiens) (UniProt Q9Y337) | yes (1) |
| CCCc1ccc(C(=O)[C@@H]2[C@@H](C(C)=O)N3c4ccc(F)cc4C=C[C@@H]3[C@@]23C(=O)Nc2ccccc23)cc1 | Kallikrein-5 (Homo sapiens) (UniProt Q9Y337) | no (0) |
| NC(=O)Cc1ccc2sc(-c3ccccc3)nc2c1 | Kallikrein-5 (Homo sapiens) (UniProt Q9Y337) | no (0) |
| C=CCOC(=O)C1=C(C)N=C2SCCC(=O)N2C1/C=C/c1ccccc1OC (configuration not stated) | Kallikrein-5 (Homo sapiens) (UniProt Q9Y337) | no (0) |
| Cc1nc(SCC(=O)N2CC(=O)Nc3ccccc32)c2c(C)c(C)sc2n1 | Kallikrein-5 (Homo sapiens) (UniProt Q9Y337) | no (0) |
| Cc1nc2ccccc2nc1N/N=C/c1ccc(O)cc1O | Kallikrein-5 (Homo sapiens) (UniProt Q9Y337) | no (0) |
| COC(=O)C1=C(C)NC(=O)NC1/C=C/c1ccccc1 (configuration not stated) | Kallikrein-5 (Homo sapiens) (UniProt Q9Y337) | no (0) |

Record lookup: outcome of this test for `CC(C)CNc1ncnc2c1cnn2Cc1ccc(Cl)cc1` ? no (0)

Assay outcome for `Cc1cccc(NC(=S)Nc2ccc(Cl)c(Cl)c2)c1` : what was it? no (0)

Kindly provide the recorded test outcome for the following compound: `CC(C)Cc1oc(C(=O)O)cc1CN` no (0)

# lookup: test call for Cc1cc(C)n(CC(C)NCc2c(C(=O)N3CCOCC3)nc3c(C)cccn23)n1 (configuration not stated) no (0)

I'd appreciate the recorded outcome for `O=C(NCCc1csc(-c2ccccc2)n1)c1ccccc1F` from this test. no (0)
